# measuredOn: human 11β-HSD1 (Homo sapiens, UniProt P28845)
# Construct: The obtained PCR products of about 0.9 kbp, 1.2 kbp, and 0.9 kbp were subcloned into an expression vector pcDNA3.1+/Zeo; expressed in transfected cells
# Sequence (P28845 whole entry): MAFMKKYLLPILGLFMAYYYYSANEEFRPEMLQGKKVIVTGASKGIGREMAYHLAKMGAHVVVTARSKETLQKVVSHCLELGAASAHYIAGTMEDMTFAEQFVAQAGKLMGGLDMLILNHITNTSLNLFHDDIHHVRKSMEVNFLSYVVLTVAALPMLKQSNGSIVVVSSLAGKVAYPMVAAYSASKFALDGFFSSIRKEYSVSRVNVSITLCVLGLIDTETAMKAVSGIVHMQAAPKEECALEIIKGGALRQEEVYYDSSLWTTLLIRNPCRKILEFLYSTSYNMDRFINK
# protocol: Enzyme inhibitory activity, human 11β-HSD1 (lysate of stably expressing HEK293 cells, cortisol by competitive ELISA)
# Type: biochemical
# measurementConditions: Table 2; human 11β-HSD1, cell lysate, 37° C. for 1 hour; read-out: h HSD1 in vitro assay (IC50 uM)
IC50 strictly under 0.7 µM means TRUE; at 0.7 µM or over means FALSE.

See these solved cases before continuing.
>>> print(df.to_string())
                                   compound  classname
0  CC1(C)C(=O)N(C2CC3CCC2C3)N1Cc1cccc(Cl)c1Cl (centres unmarked) [Example 79]       TRUE
1  CC1(C)C(=O)N(C2C3CC4CC(C3)CC2C4)N1Cc1ccc(F)c(F)c1 (centres unmarked) [Example 16]      FALSE
2  CC1(C)C(=O)N(C2C3CC4CC(C3)CC2C4)N1Cc1cccc(Cl)c1 (centres unmarked) [Example 28]       TRUE

Please examine the following record next.
Please check: IC50 for CC1(C)C(=O)N(C2C3CC4CC(C3)CC2C4)N1Cc1ccc(Br)cc1 (centres unmarked) [Example 53] , strictly under 0.7 µM or not?
TRUE

---

# measuredOn: mouse 11β-HSD1 (Mus musculus)
# Construct: The obtained PCR products of about 0.9 kbp, 1.2 kbp, and 0.9 kbp were subcloned into an expression vector pcDNA3.1+/Zeo; expressed in transfected cells
# Sequence (P50172 whole entry): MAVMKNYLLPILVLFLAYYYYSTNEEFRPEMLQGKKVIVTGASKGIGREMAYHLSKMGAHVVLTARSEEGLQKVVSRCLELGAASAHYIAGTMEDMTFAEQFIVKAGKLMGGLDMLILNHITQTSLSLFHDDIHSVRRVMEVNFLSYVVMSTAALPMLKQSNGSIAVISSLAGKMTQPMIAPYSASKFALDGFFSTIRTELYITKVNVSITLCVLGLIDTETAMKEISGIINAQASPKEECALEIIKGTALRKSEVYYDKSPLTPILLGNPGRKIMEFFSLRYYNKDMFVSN
# protocol: Enzyme inhibitory activity, mouse 11β-HSD1 (lysate of stably expressing CHO-K1 cells, cortisol by competitive ELISA)
# Format: biochemical
# measurementConditions: Table 2; mouse 11β-HSD1, cell lysate, 37° C. for 1 hour; read-out: m HSD1 in vitro assay (IC50 uM)
Let's look at some compounds and their measured log10 of IC50.
Values are log10 of IC50 in µM.

As a guide, the following entries are already answered.
>>> df
                                   compound  recordedvalue
0  CC1(C)C(=O)N(C2CCCCCC2)N1Cc1ccc(F)cc1Cl [Example 86]          -0.31
1  CC1C(=O)N(C2C3CC4CC(C3)CC2C4)N1Cc1ccc(Cl)cc1 (stereo not drawn) [Example 9]          -0.62
2  CC1(C)C(=O)N(C2C3CC4CC(C3)CC2C4)N1Cc1cccc(Cl)c1Cl (stereo not drawn) [Example 43]          -1.13

Supply reported log10 of IC50 belonging to this compound: CC1(C)C(=O)N(C2C3CC4CC(C3)CC2C4)N1Cc1cccc(Cl)c1 (stereo not drawn) [Example 28]
-1.14

Supply reported log10 of IC50 belonging to this compound: CC1C(=O)N(C2C3CC4CC(C3)CC2C4)N1Cc1ccccc1 (stereo not drawn) [Example 8]
-0.74

---

# measuredOn: human 11β-HSD1 (Homo sapiens)
# Construct: The obtained PCR products of about 0.9 kbp, 1.2 kbp, and 0.9 kbp were subcloned into an expression vector pcDNA3.1+/Zeo; expressed in transfected cells
# protocol: Enzyme inhibitory activity, human 11β-HSD1 (lysate of stably expressing HEK293 cells, cortisol by competitive ELISA)
# Assay type: biochemical
# measurementConditions: Table 1; human 11β-HSD1, cell lysate, 37° C. for 1 hour; read-out: h HSD1 in vitro assay (IC50 uM)
measuredAttribute: log10 of IC50 (log10 of the value in µM)
Values are log10 of IC50 in µM.

As a guide, the following entries are already answered.
                                   compound  measuredattribute  recordedvalue
0  CC1(C)C(=O)N(C2CC3CCC2C3)N1c1cccc2ccccc12 (centres unmarked) [Example 225]      log10 of IC50          -1.44
1  CC1(C)C(=O)N(C2C3CC4CC(C3)CC2C4)N1/C=C/c1ccccc1 (centres unmarked) [Example 265]      log10 of IC50          -1.44
2  COc1ccccc1N1N(C2CC3CCC2C3)C(=O)C1(C)C (centres unmarked) [Example 223]      log10 of IC50          -0.17

For human 11β-HSD1 (Homo sapiens), give the measured log10 of IC50 of the entry CC1(C)C(=O)N([C@H]2C3CC4CC2C[C@](O)(C4)C3)N1c1cccc2ccccc12 [Example 236]
-1.02
